Assay: Binding affinity to multilamellar vesicles by NMR titration method
quantity_name: Kapp (M⁻¹)

a = O=c1cc(-c2ccccc2)oc2ccc(O)cc12 [6-HYDROXYFLAVONE]
b = O=c1cc(-c2ccccc2)oc2cc(O)c(O)c(O)c12
q: Record comparison, field Kapp: mark the lower of a and b . Pick one; state its label.
a: b

a = O=c1cc(-c2ccccc2)oc2cccc(O)c12 [5-HYDROXYFLAVONE]
b = O=c1cc(-c2ccccc2)oc2cc(O)cc(O)c12
c = O=c1cc(-c2ccccc2)oc2ccccc12
q: # rank by Kapp, ascending (min first) Give your ranking as a list of the labels in the requested order.
a: a, b, c
(a: 229 M⁻¹, b: 532 M⁻¹, c: 1820 M⁻¹)

====

Test system: MCF7
Assay: Antiproliferative activity against human MCF7 cells assessed as cell growth at 10^-4 ug/ml after 48 hrs by sulforhodamine B assay relative to control
Format: functional
Conditions: MCF7, 48 h, read-out: Activity
quantity_name: growth at 0.0001 µg/mL (%)
// return numeric value only (unit: %, not printed)

molecule: O=c1cc(-c2ccccc2)oc2ccc(O)cc12 [6-HYDROXYFLAVONE]
growth at 0.0001 µg/mL [%]: 28.8
//
molecule: O=c1cc(-c2ccccc2)oc2cc(O)ccc12 [7-HYDROXYFLAVONE]
growth at 0.0001 µg/mL [%]: 26.6

q: Fill in the blank: the reported growth at 0.0001 µg/mL of `O=c1cc(-c2ccccc2)oc2cc(O)c(O)c(O)c12` is ____.
a: -8.9

q: Next molecule up: `O=c1cc(-c2ccccc2)oc2cc(O)cc(O)c12`
a: 25.9

q: Next molecule up: `O=c1cc(-c2ccccc2)oc2ccccc12`
a: 50.3

q: Next molecule up: O=c1cc(-c2ccccc2)oc2cccc(O)c12 [5-HYDROXYFLAVONE]
a: 28.6

====

Assay: Binding affinity to multilamellar vesicles after 2 hrs by centrifugation method
quantity_name: Kapp (M⁻¹)

Previously resolved entries follow.
compound: O=c1cc(-c2ccccc2)oc2ccccc12
Kapp / M⁻¹: 19600

compound: O=c1cc(-c2ccccc2)oc2cc(O)cc(O)c12
Kapp / M⁻¹: 759

compound: O=c1cc(-c2ccccc2)oc2cc(O)ccc12 [7-HYDROXYFLAVONE]
Kapp / M⁻¹: 450

compound: O=c1cc(-c2ccccc2)oc2cc(O)c(O)c(O)c12
Kapp / M⁻¹: 252

1 = O=c1cc(-c2ccccc2)oc2cccc(O)c12 [5-HYDROXYFLAVONE]
2 = O=c1cc(-c2ccccc2)oc2ccc(O)cc12 [6-HYDROXYFLAVONE]
q: Record comparison, field Kapp: mark the lower of 1 and 2 . Pick one; state its label.
a: 1

====

Tested on: Lipid bilayer
Assay: Binding affinity to DPPC lipid bilayer assessed as pre-transition temperature at 1:20 drug to DPPC molar ratio by differential scanning calorimetric analysis
quantity_name: T (°C)

compound: O=c1cc(-c2ccccc2)oc2cc(O)ccc12 [7-HYDROXYFLAVONE]
T / °C: 31.9

compound: O=c1cc(-c2ccccc2)oc2cc(O)cc(O)c12
T / °C: 31

compound: O=c1cc(-c2ccccc2)oc2cc(O)c(O)c(O)c12
T / °C: 32.1

compound: O=c1cc(-c2ccccc2)oc2cccc(O)c12 [5-HYDROXYFLAVONE]
T / °C: 32.3

====

System: Lipid bilayer
Experiment: Binding affinity to DPPC lipid bilayer assessed as pre-transition temperature at 1:10 drug to DPPC molar ratio by differential scanning calorimetric analysis
quantity_name: T (°C)

compound: O=c1cc(-c2ccccc2)oc2cc(O)c(O)c(O)c12 [BAICALEIN]
u: °C
T: 30.2
//
compound: O=c1cc(-c2ccccc2)oc2cccc(O)c12 [5-HYDROXYFLAVONE]
u: °C
T: 32
//
compound: O=c1cc(-c2ccccc2)oc2cc(O)cc(O)c12 [CHRYSIN]
u: °C
T: 30.4
//
compound: O=c1cc(-c2ccccc2)oc2cc(O)ccc12 [7-HYDROXYFLAVONE]
u: °C
T: 31.8

====

Test system: Radical scavenging activity
Test: Antioxidant activity assessed as DPPH radical scavenging activity after 30 mins
Assay type: functional
quantity_name: IC50 (µg/mL)

compound: O=c1cc(-c2ccccc2)oc2cccc(O)c12 [5-HYDROXYFLAVONE]
assay_system: Radical scavenging activity
quantity_name: IC50
measured_value: 23.8
//
compound: O=c1cc(-c2ccccc2)oc2cc(O)ccc12 [7-HYDROXYFLAVONE]
assay_system: Radical scavenging activity
quantity_name: IC50
measured_value: 24.2
//
compound: O=c1cc(-c2ccccc2)oc2cc(O)c(O)c(O)c12 [BAICALEIN]
assay_system: Radical scavenging activity
quantity_name: IC50
measured_value: 18.2
//
compound: O=c1cc(-c2ccccc2)oc2ccc(O)cc12 [6-HYDROXYFLAVONE]
assay_system: Radical scavenging activity
quantity_name: IC50
measured_value: 22.1
//
compound: O=c1cc(-c2ccccc2)oc2cc(O)cc(O)c12 [CHRYSIN]
assay_system: Radical scavenging activity
quantity_name: IC50
measured_value: 20.4

====

System: Lipid bilayer
Test: Binding affinity to DPPC lipid bilayer assessed as melting temperature at 1:10 drug to DPPC molar ratio by differential scanning calorimetric analysis
quantity_name: Tm (°C)

compound: O=c1cc(-c2ccccc2)oc2cc(O)cc(O)c12 [CHRYSIN]
u: °C
Tm: 39.8
//
compound: O=c1cc(-c2ccccc2)oc2cccc(O)c12 [5-HYDROXYFLAVONE]
u: °C
Tm: 40.7
//
compound: O=c1cc(-c2ccccc2)oc2cc(O)ccc12 [7-HYDROXYFLAVONE]
u: °C
Tm: 40.5
//
compound: O=c1cc(-c2ccccc2)oc2cc(O)c(O)c(O)c12 [BAICALEIN]
u: °C
Tm: 39.7
//
compound: O=c1cc(-c2ccccc2)oc2ccccc12 [FLAVONE]
u: °C
Tm: 36.7
//
compound: O=c1cc(-c2ccccc2)oc2ccc(O)cc12 [6-HYDROXYFLAVONE]
u: °C
Tm: 37.3
